system: K4 kissing-loop RNA reporter; assay: apparent KD of K4 kissing-loop reporter; higher = weaker reporter binding; conditions: Eterna round: R107; input ligand: FMN 200 uM;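 note: bound reporter read as fluorescence of individual clusters on recovered sequencing chips by microscopy, with normalized cluster intensities fitted with a binding model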
Assign class by apparent KD of K4 kissing-loop reporter: not lower than 200 nM means true; lower than 200 nM means false.

AAACAUUGGUCGGAUACCAGUUAGACCGAUAAGGUCAAAACUGGAGUGAUGUUCCCAAAUAACCCUUGGCAGCCGACCGAUGAAA [MAT - Same State Theophlline B - Mod of Eli - D11] : false
UUUGCAAAGUCGGCCGCCACUCCGGGCCCUAUAAAUGGGCGCAGUGAUGUUGCGGCUAGGCCUCUGAGGACCGGGACUUUGUAAA [Inusleve] : false
GGAUAGGACAGAGGAUAUCUCUGAGGCAAGAAAACUUGUCUCAAAAGAGAUGACUCAGUGAUGUUGAGAGAAGGCUGUCCUAUCG [FmnBX 8 - #SwitchBubble #StaticStem] : true
UGACUACAAAAGGAAUAAUCCUAGUGAUGUUAGGAUAUGCUGAUAAGCAGAAGGAACGGAGAUCGAAAGAUCUCAUAUGUAGUCU [whbob_Ex_FMNA__2th192] : false
GAUAUAGUGAUGUUAUAUACUGAUAGACAACGAGGACCGGUACGGCCGCCACUCGAGAGGGUGAAAAUGAUGAUAAAAUAAUAAU [#01 K4 Tryptophan A Exclusion] : true

Please turn your attention to the following entry.
Q: Does AGUGAUGUUGUGUUAUGUUAGUGAAGUGAUCGAGGACCGGUACGGCCGCCACUCGAGUGAUGAGUGAGUGAUGUUUGUUUAGGGA [popmullin] have a reported apparent KD of K4 kissing-loop reporter of at least 200 nM?
A: true

----------
system: MS2 coat protein; test: apparent KD of MS2 coat protein; designed switch direction (-1 OFF switch, 1 ON switch): -1; higher = weaker reporter binding; settings: input ligand: none
Reported property: apparent KD of MS2 coat protein (µM)
Provide only the numeric value, understood in µM.

Some solved cases for reference:
CACUUGGUAGGAUAUGAAGGGAGGAACAUGAGGAUCACCCAUGUCCUGGAAUCCAGUCCGUCAGAAGGACCUGAGC [Eternabot (L1) Solution 44] (Eterna round: R97, puzzle: Exclusion 5) : 0.0216
GAAUUAGUAGGAUAUACAUGAGGAUCACCCAUGUCUCAAACCAUGUACAGGAGAGGCUGUAGAAGGACUGAACA [Eternabot (Original) Solution 19] (Eterna round: R97, puzzle: Exclusion 3) : 0.0317
UUGUAUAUAGGAUAUGUAAGAAGAAACAUGAGGAUCACCCAUGUAGCCUCAAAUUUUAUGACAGAAGGAUAUGUUA [Default title] (Eterna round: R97, puzzle: Exclusion 5) : 0.056
AUAUUACAUGAGGAUCACCCAUGUGAGGAUAUGGAGCGCGACCGCCCGGUCGCGUACACCAGAAGGCGCGGGCG [1st #57] (Eterna round: R97, puzzle: Exclusion 1) : 0.0223

Let us examine a further case.
Q: So what does the record say about apparent KD of MS2 coat protein for ACAAGCUUUUUCGUGGGUGACAUGAGGAUCACCCAUGUUUGCCGCGUCUUGUCGUCGUGGACCUGUGGUCCAUGACG [Small mod of -44.6, -64.9 by Sellena] (Eterna round: R97, puzzle: Sensor, turn-off variant 1) ?
A: 0.153

----------
Each entry below lists one item and its recorded apparent KD of MS2 coat protein value.
system: MS2 coat protein; assay: apparent KD of MS2 coat protein; designed switch direction (-1 OFF switch, 1 ON switch): -1; higher = weaker reporter binding; settings: input ligand: FMN 200 uM
Provide only the numeric value, understood in µM.

Some solved cases for reference:
UGAGUGCUGCGAGGAUAUACAUGAGGAUCACCCAUGUAAUCGUGUGAGGCAAAGCCUCACACGAAGUAGAAGGCGCAGUACUCU [Mat - Exclusion NG 2 - Mod of JL - D17] (Eterna round: R96, puzzle: Exclusion NG 2) : 0.016
CGACAGGGAGGAUAUACAUGAGGAUCACCCAUGUUCAAGCGUCCUUGAACUACCUCUGGUAGAAGGCCCUAAAG [jl-ex3-4.67 ViennaUCT mod] (Eterna round: R97, puzzle: Exclusion 3) : 0.0446
GAAAACGUAGGAUAUUAAUACUCAGACAUGAGGAUCACCCAUGUUUGGUGGGUCGGAGAAUGAGAAGGGCGAUGAA [EX5 #14] (Eterna round: R97, puzzle: Exclusion 5) : 0.0823
CACCGGGUAGGAUAUACUUGAGGAUCACCCAAGUGGGAACCUACUCGGUGGUCCUUAAGUAGAAGGACCAACGG [Ex 2] (Eterna round: R97, puzzle: Exclusion 3) : 0.0115
UUAUACAAGCAAAGAUCCCACAUGAGGAUCACCCAUGUGCUCGUCUUAUAAGGAUCUGUGACGAAAGUCACGGAUCC [Mat - Sensor, turn-off var - Eli Mod - D101] (Eterna round: R97, puzzle: Sensor, turn-off variant 1) : 0.0433

Q: Param readout = apparent KD of MS2 coat protein; param system = MS2 coat protein; param query = AGAUUAAUAGUAAGGAUAUGAUGCAGGAAACUGCGUCAGAAGGUACAUGAGGAUCACCCAUGUUAAACUAAUUU [Explosion 7 - Jieux - Brourd's mod of Exclusion 4] (Eterna round: R97, puzzle: Brourd's mod of Exclusion 4) ; response: value
A: 0.0174

Q: Param readout = apparent KD of MS2 coat protein; param system = MS2 coat protein; param query = CUCUCACAUGAGGAUCACCCAUGUUAGGAUAUUCCGUAGCGACUUACAAGAGGAGCAGGAAGAAGGAGCCUGGC [Eternabot (L1) Solution 40] (Eterna round: R97, puzzle: Exclusion 1) ; response: value
A: 0.343

Q: Param readout = apparent KD of MS2 coat protein; param system = MS2 coat protein; param query = GUUUUCAGACGGAGAUCCUACAUGAGGAUCACCCAUGUCUCUCAAGCUAAUUGCUCGUCUUAUUCUCCUCUGUUCUC [Elimod 39 - Jieux - Sensor, turn-off variant 1] (Eterna round: R97, puzzle: Sensor, turn-off variant 1) ; response: value
A: 0.0356

Q: Param readout = apparent KD of MS2 coat protein; param system = MS2 coat protein; param query = CUGCUCCGUGUAGGAUAUGCGCGCACCACCCGCGCAGAAGGACAUGAGGAUCACCCAUGUAUGUUAUUAUCACGUGAGGCGCGC [Design 37] (Eterna round: R96, puzzle: Exclusion NG 1) ; response: value
A: 0.0168

----------
system: MS2 coat protein; experiment: apparent KD of MS2 coat protein, switch OFF state (with FMN for OFF switches, without FMN for ON switches); designed switch direction (-1 OFF switch, 1 ON switch): 1; higher = weaker reporter binding; details: FMN input: 0 or 200 uM; Eterna round: R93 (includes R88 designs)
Reported property: apparent KD of MS2 coat protein (µM)
Provide only the numeric value, understood in µM.

Some solved cases for reference:
AAACAGAUAGGACAGGAUAUGUCGUGAUAAACAUGAGGAUCACCCAUGUGAGACAUCACGUAAUCGCAGAAGGGUCCUGUCUUAC [Aquditiri] : 0.0156
AAGAAACAUGAGGAUCACCCAUGUAAAAAUAUGGGAGGAUAUGCGAAAAGAAACAAAGAAGCAGAAGGCCUAAGAA [75%, Ex5 sub 1, 6] : 0.0511
GAGAUACAUGAGGAUCACCCAUGUUGAAACAUGGGAGGAUAUACAAGGUCGAAAGAUAAGGUAGAAGGCCUAAAAG [LROPPY Same State 1 - v04_deltaG=3.] : 0.0203

Q: So what does the record say about apparent KD of MS2 coat protein for AAAAAACAUGAGGAUCACCCAUGUCGAAAGACGUGAGGAUAUGUACAGACUUCGGUCUGUACAGAAGGCAUGAAAA [SS1 - 1057] ?
A: 0.176

Q: So what does the record say about apparent KD of MS2 coat protein for AUAUAUAUAAGGUAGGAUAUACUAAAGUAAACAUGAGGAUCACCCAUGUAAAGAAAGAAACUCAUGUAGAAGGACCAUAUAUAUAU [Ex 6 sub 1] ?
A: 0.163

Q: So what does the record say about apparent KD of MS2 coat protein for AAACAAACAACGCAGGAUAUGCAAAAACCCACAUGAGGAUCACCCAUGUCCCAACAACAAACAAAGCAGAAGGGCGAACAAACAAA [High Roller1] ?
A: 0.0868

----------
tested on: MS2 coat protein; assay: apparent KD of MS2 coat protein, switch OFF state (with FMN for OFF switches, without FMN for ON switches); designed switch direction (-1 OFF switch, 1 ON switch): -1; higher = weaker reporter binding; conditions: FMN input: 0 or 200 uM; Eterna round: R93 (includes R88 designs)
Reported property: apparent KD of MS2 coat protein (nM)
Provide only the numeric value, understood in nM.

Some solved cases for reference:
AGUUGGCGAGGAUAUACAUGAGGAUCACCCAUGUAAAAUAAAUAAAAAAUAAAAGGGAGUAGAAGGCGCUGACA [73%, Moding Norbert Elias, 16] : 53.4
AAAAAGGCAGGAUAUGCAUACACACGAAAAAAAACGCUGGGACAUGAGGAUCACCCAUGUAGAAGGGCCAAAAA [Dora Explored 10 - Jieux - Exclusion 2] : 38.6
CGUUGGCGAGGAUAUACAUGAGGAUCACCCAUGUGAGAGAAAAAAGUGAGAAAGAAAAGUAGAAGGCGCUGACU [salish99-ex3-11] : 132
GGGAAACAUGAGGAUCACCCAUGUGAGGAUAUGCUAUGGAAAAUAAAAAUAAAACAUAGCAGAAGGCAUAAAAA [Denovo 11] : 37

Let us examine a further case.
Q: So what does the record say about apparent KD of MS2 coat protein for GAAAAACAUGAGGAUCACCCAUGUAAGGAUAUGCUAAAAAACGCAAAAAAAGCGAAUAGCAGAAGGUACAAAAG [Mat - Exclusion 1 - Eli mod - D82] ?
A: 78.1
